The values you see were collected from PubChem BioAssay (NCI).

- System: RXF 393 renal
- assay.details: NCI tumour cell line growth inhibition, 48 h
recorded.metric: TGI

| compound | recorded.result |
| --- | --- |
| N#CC1CCCCOCCOCCOCCOCCOCCCCCC1=O (stereo not given) | > 100 µM |
| O=c1oc2ccc([N+](=O)[O-])cc2c(Nc2ccc3c(c2)Sc2ccccc2O3)c1[N+](=O)[O-] | 40.2 µM |
| O=C(CSc1ncn[nH]1)C[P+](c1ccccc1)(c1ccccc1)c1ccccc1 | > 100 µM |
| ON(Cc1ccccc1)C(=S)c1ccccc1 | 85.3 µM |
| COc1cccc(/C=N/NC(=S)NC2CC3CCC2C3)c1O (stereo not given) | 28.1 µM |
| COc1cccc(CSCC(=O)O)c1 | > 100 µM |
| CCC(c1ccc(OC)cc1)C(CC)c1ccc(O)c(CN2CCN(C)CC2)c1 (stereo not given) | 12.2 µM |
| CS(=O)(=O)NNS(=O)(=O)c1ccccc1 | > 100 µM |
| COc1cc2cc(C(=O)N3CC(CCl)c4c3cc(NC(=O)OCc3ccc([N+](=O)[O-])cc3)c3ccccc43)[nH]c2c(OC)c1OC (stereo not given) | > 100 µM |
| CCCCCc1cc2cc3c(c(O)c2c(=O)[nH]1)C1(CCC3)C(O)=c2c(=O)c3c(=O)cc(OC)c(=O)c=3c(=O)c2=C1O (stereo not given) | 1.82 µM |
| CCO[C@@]1(COCc2ccccc2)OC(=O)C[C@@H]1N1C(=O)OC[C@@H]1c1ccccc1 | > 100 µM |
| O=[N+]([O-])c1ccc(C(Nc2ccccc2)P(c2ccccc2)c2ccccc2)cc1 (stereo not given) | > 100 µM |
| S=c1nc(COc2ccc(Cl)cc2Cl)[nH][nH]1 | > 100 µM |
| C[N+](C)(C)CC1CCC/C1=N/O (stereo not given) | > 100 µM |
| Cc1ccc2c(=O)c(C(=O)Nn3c(C)csc3=S)c[nH]c2n1 | > 100 µM |
| COc1cc(-c2cc(-c3ccc(Nc4ccnc5cc(Cl)ccc45)cc3)nc(N3CCOCC3)n2)cc(OC)c1OC | 4.44 µM |
| Clc1ccc(-c2nnc(-c3cccc4ccccc34)o2)cc1Cl | > 100 µM |
| COc1cc(C2SC(C)C(=O)N2c2ccc(-c3csc(NS(=O)(=O)c4ccc(Cl)c(OC)c4)n3)cc2)ccc1O (stereo not given) | > 100 µM |
| Oc1ccc(Cl)cc1-c1cc(-c2ccccc2)nc(NCN2CCCCC2)n1 | > 100 µM |
| S=c1[nH]nc(Cc2ccccc2)c(=S)[nH]1 | > 100 µM |
| COc1ccc2c(C3(c4cn(C)c5cc(OC)ccc45)C(=O)Nc4ccc(Cl)cc43)cn(C)c2c1 | 7.87 µM |
| O=S(OC12CC3CC(CC(C3)C1)C2)c1cc(Cl)cc(Cl)c1OCc1ccccc1 (stereo not given) | > 100 µM |
| CC(=O)OCC1OC(OCCCCCCO)C(OC(C)=O)C(OC(C)=O)C1OC(C)=O (stereo not given) | > 100 µM |
| CCCC(O)c1cn(C(NC(=O)c2ccccc2)P(=O)(OCC)OCC)nn1 (stereo not given) | > 100 µM |
| CN=C(NC(=S)N(C)C)N(C)C | > 100 µM |
| Cn1nc(-c2ccc(Cl)cc2)nc2c(=O)n(C)c(=O)nc1-2 | 1.57 µM |
| Cc1ccc(C(NC(=O)c2ccccc2)c2ccc3cccnc3c2O)cc1 (stereo not given) | 1.58 µM |
| CC1(C)O[C@@H](CCl)C[C@H](C#N)O1 | > 100 µM |
| COc1ccc(NC(=O)CC(=O)n2nc(C)c(N=Nc3cccc(C)c3)c2C)cc1 | > 100 µM |
| C=CC(OC(C)=O)c1ccc(OC(=O)C(C)C)c(OC)c1 (stereo not given) | 14.4 µM |
| Cc1ccc(NC(=O)C2C(=O)N(c3ccc(C)c(C)c3)C(=O)/C2=N\NC(N)=O)cc1C (stereo not given) | > 100 µM |
| CCCCC(C)C(OC(=O)CC(CC(=O)O)C(=O)O)C(CC(C)CC(O)CCCCC(O)CC(O)C(C)N)OC(=O)CC(CC(=O)O)C(=O)O (stereo not given) | > 100 µM |
| CCOC(=O)C[n+]1cccc(C2(c3cc4ccccc4[nH]3)OCCO2)c1 | > 100 µM |
| O=[N+]([O-])c1ccc(Cl)c(C2CC(c3cccc4ccccc34)=Nc3ccccc3S2)c1 (stereo not given) | 21.7 µM |
| COC(=O)C1C=CCON2CCc3c(n(C)c4ccccc34)C12 (stereo not given) | > 100 µM |
